tested on: Candida albicans; experiment: Relative in vitro efficacy (growth inhibition of Candida albicans on agar replicate plates); format: cell-based; details: 100-150 cells of Candida albicans plated on replicate agar plates containing 15 μg of compound
Examples of compounds with documented Relative In Vitro Efficacy follow.
Assay Endpoint: Relative In Vitro Efficacy

INSERT INTO measurements (compound, reported_measurement) VALUES
  ('O=C(O)c1c([N+](=O)[O-])c(Cl)cc(Cl)c1[N+](=O)[O-]', 100),
  ('O=C(O)c1cc([N+](=O)[O-])c(Cl)c([N+](=O)[O-])c1Cl', 10),
  ('O=C(O)c1c([N+](=O)[O-])c(Br)cc(Br)c1[N+](=O)[O-]', 100),
  ('COC(=O)c1c([N+](=O)[O-])c(Br)cc(Br)c1[N+](=O)[O-] [Example 4, methyl 3,5-dibromo-2,6-dinitrobenzoate]', 4);

The origin of these recorded values is patent US6124352A.
